# measurement.target: HLA-A*0301 (human)
# method.description: 125I-probe peptide inhibition, purified HLA
# condition.notes: remark: other sources report otherwise
Non-standard residues stand in square brackets, D forms with d. No end group written: not given here. Abu = CC[C@H](N)C(=O)O
// classify: if (IC50 < 30 nM) met else not met

binder="GVRVRAMAIYK [p53.154.V2]" assigned_class="not met"
binder="KVYQGSYGFR [p53.101.V2]" assigned_class="not met"
binder="KVYQGSYGFK [p53.101.V2K10]" assigned_class="not met"
binder="KMFCQLAK [p53.132 (8-mer)]" assigned_class=met
binder="GTRVRAMAIYK [p53.154]" assigned_class=met
binder="SV[Abu]MGGMNK [p53.240.V2B3K9]" assigned_class=met
binder="RVCACPGR [p53.273 (8-mer)]" assigned_class="not met"
binder="SVSRHKKLMFK [p53.376.V2]" assigned_class="not met"

Reference source: patent US20040048790A1
